assay: Cytotoxicity against human RMUG-S cells measured after 8 days; assay type: functional, cell-based; conditions: 192 h

smiles-repr | IC50
C/C=C/Cn1cc(-c2ccc(C(C)(C)O)cc2OC)c2cc[nH]c2c1=O | 20 µM
C/C=C/Cn1cc(-c2ccc(C(=O)N3CCOCC3)cc2)c2cc[nH]c2c1=O | 20 µM

---

system: Panc1005; experiment: Cytotoxicity against human Panc1005 cells measured after 8 days; type: functional, cell-based; conditions: Panc1005, 192 h
measure: IC50 (µM)

smiles-repr | system-under-test | measure | val
C/C=C/Cn1cc(-c2ccc(C(C)(C)O)cc2OC)c2cc[nH]c2c1=O | Panc1005 | IC50 | 20
C/C=C/Cn1cc(-c2ccc(C(=O)N3CCOCC3)cc2)c2cc[nH]c2c1=O | Panc1005 | IC50 | 20

---

biological target: Transcription initiation factor TFIID subunit 1 (Homo sapiens, UniProt P21675); assay: Binding affinity to human partial length TAF1 bromodomain 2 (D1521 to D1656 residues) expressed in bacterial expression system by BROMOscan assay
Sequence (P21675 whole entry, the tested form may be a part): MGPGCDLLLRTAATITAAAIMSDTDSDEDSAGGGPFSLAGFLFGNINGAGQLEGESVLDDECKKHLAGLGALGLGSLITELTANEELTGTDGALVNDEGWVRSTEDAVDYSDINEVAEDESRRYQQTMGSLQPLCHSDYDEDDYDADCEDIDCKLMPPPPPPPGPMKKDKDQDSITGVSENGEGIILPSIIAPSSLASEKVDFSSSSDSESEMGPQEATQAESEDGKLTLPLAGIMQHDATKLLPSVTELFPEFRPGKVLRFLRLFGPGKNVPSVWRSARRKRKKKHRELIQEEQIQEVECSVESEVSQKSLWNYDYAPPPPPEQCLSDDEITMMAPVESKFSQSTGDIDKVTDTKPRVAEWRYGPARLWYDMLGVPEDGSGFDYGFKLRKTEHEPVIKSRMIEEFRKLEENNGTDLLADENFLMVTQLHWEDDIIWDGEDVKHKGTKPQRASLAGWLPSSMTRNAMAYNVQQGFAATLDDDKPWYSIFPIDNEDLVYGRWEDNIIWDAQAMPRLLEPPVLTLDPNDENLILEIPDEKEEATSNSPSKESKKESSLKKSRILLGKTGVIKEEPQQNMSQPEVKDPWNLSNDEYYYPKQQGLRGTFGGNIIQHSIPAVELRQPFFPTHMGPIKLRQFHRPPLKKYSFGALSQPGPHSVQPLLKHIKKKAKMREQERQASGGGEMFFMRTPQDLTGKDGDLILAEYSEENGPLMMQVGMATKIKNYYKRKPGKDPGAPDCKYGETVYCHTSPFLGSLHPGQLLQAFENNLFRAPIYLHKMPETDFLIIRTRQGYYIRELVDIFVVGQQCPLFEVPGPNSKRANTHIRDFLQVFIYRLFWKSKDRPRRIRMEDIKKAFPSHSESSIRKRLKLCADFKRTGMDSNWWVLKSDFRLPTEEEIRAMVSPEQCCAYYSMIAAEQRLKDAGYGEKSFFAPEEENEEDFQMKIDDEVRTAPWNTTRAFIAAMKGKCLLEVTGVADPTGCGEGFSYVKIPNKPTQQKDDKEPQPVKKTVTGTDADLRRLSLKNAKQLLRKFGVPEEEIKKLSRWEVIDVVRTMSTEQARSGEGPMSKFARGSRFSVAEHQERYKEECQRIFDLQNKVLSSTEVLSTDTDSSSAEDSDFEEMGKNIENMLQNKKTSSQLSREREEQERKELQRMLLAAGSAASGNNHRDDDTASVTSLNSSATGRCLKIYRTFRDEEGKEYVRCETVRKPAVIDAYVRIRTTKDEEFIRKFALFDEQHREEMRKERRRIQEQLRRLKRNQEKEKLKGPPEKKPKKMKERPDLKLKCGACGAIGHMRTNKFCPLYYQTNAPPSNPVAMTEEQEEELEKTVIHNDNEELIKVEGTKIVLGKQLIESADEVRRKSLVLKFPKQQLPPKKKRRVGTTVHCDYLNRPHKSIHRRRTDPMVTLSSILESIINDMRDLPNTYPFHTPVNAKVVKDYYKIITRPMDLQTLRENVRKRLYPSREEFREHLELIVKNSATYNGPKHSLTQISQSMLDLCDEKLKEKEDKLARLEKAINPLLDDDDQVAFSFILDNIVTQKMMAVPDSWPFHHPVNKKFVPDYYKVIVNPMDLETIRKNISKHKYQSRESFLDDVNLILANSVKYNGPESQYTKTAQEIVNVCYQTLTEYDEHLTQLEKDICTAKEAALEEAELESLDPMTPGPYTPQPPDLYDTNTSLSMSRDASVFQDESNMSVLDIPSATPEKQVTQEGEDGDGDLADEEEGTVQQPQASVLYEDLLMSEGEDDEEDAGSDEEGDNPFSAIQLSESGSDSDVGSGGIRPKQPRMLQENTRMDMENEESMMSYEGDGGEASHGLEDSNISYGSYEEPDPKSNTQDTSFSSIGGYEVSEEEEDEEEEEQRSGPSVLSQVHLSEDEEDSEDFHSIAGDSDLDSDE
pKd: −log10 of the molar value.
measure: pKd

smiles-repr | system-under-test | measure | val
C/C=C/Cn1cc(-c2ccc(C(C)(C)O)cc2OC)c2cc[nH]c2c1=O | Transcription initiation factor TFIID subunit 1 (Homo sapiens, UniProt P21675) | pKd | < 5.00
C/C=C/Cn1cc(-c2cc(OC)c(C(=O)N3CCOCC3)cc2OC)c2cc(C)[nH]c2c1=O | Transcription initiation factor TFIID subunit 1 (Homo sapiens, UniProt P21675) | pKd | < 5.00
C/C=C/Cn1cc(-c2ccc(C(=O)N3CCOCC3)cc2)c2cc[nH]c2c1=O | Transcription initiation factor TFIID subunit 1 (Homo sapiens, UniProt P21675) | pKd | 6.51
C/C=C/Cn1cc(-c2cc(OC)c(C(C)(C)O)cc2OC)c2cc(C)[nH]c2c1=O | Transcription initiation factor TFIID subunit 1 (Homo sapiens, UniProt P21675) | pKd | < 5.00

---

Each entry below lists one item and its recorded log10 IC50 value.
molecular target: Transcription initiation factor TFIID subunit 1 (Homo sapiens, UniProt P21675); assay: Displacement of biotinylated small-molecule ligand from recombinant His-tagged TAF1 bromodomain 2 (unknown origin) measured after 10 mins by TR-FRET assay
measure: log10 IC50 (log10 of the value in nM)

smiles-repr | system-under-test | log10 IC50
C/C=C/Cn1cc(-c2ccc(C(=O)N3CCOCC3)cc2)c2cc(C)[nH]c2c1=O | Transcription initiation factor TFIID subunit 1 (Homo sapiens, UniProt P21675) | 2.88
C/C=C/Cn1cc(-c2ccc(C(=O)N3CCOCC3)cc2)c2cc[nH]c2c1=O | Transcription initiation factor TFIID subunit 1 (Homo sapiens, UniProt P21675) | 3.18
C/C=C/Cn1cc(-c2ccc(C(=O)N3CCOCC3)c(Cl)c2)c2cc(C)[nH]c2c1=O | Transcription initiation factor TFIID subunit 1 (Homo sapiens, UniProt P21675) | 3.15
C/C=C/Cn1cc(-c2ccc(C(C)(C)O)cc2)c2cc[nH]c2c1=O | Transcription initiation factor TFIID subunit 1 (Homo sapiens, UniProt P21675) | 3.74
C/C=C/Cn1cc(-c2ccc(C(=O)N3CCOCC3)c(C)c2)c2cc(C)[nH]c2c1=O | Transcription initiation factor TFIID subunit 1 (Homo sapiens, UniProt P21675) | 3.45
C/C=C/Cn1cc(-c2ccc(C(=O)N3CCOCC3)c(OC)c2)c2cc(C)[nH]c2c1=O | Transcription initiation factor TFIID subunit 1 (Homo sapiens, UniProt P21675) | 3.23
C/C=C/Cn1cc(-c2ccc(C(=O)N3CCOCC3)c(C#N)c2)c2cc(C)[nH]c2c1=O | Transcription initiation factor TFIID subunit 1 (Homo sapiens, UniProt P21675) | 2.72

---

system: FTC-133; experiment: Cytotoxicity against human FTC-133 cells measured after 8 days; assay type: functional, cell-based; conditions: FTC-133, 192 h
Each entry below lists one item and its recorded IC50 value.
measure: IC50

smiles-repr | val
C/C=C/Cn1cc(-c2ccc(C(C)(C)O)cc2OC)c2cc[nH]c2c1=O | 20 µM
C/C=C/Cn1cc(-c2ccc(C(=O)N3CCOCC3)cc2)c2cc[nH]c2c1=O | 20 µM

---

system: TK-10; test: Cytotoxicity against human TK-10 cells measured after 8 days; type: functional, cell-based; conditions: TK-10, 192 h
measure: IC50 (µM)

smiles-repr | system-under-test | val
C/C=C/Cn1cc(-c2ccc(C(=O)N3CCOCC3)cc2)c2cc[nH]c2c1=O | TK-10 | 20
C/C=C/Cn1cc(-c2ccc(C(C)(C)O)cc2OC)c2cc[nH]c2c1=O | TK-10 | 20

---

Each entry below lists one item and its recorded pIC50 value.
test: Cytotoxicity against human NCE-G 121 cells measured after 8 days; type: functional, cell-based; details: NCE-G 121, 192 h
pIC50: −log10 of the molar value.

smiles-repr | pIC50
C/C=C/Cn1cc(-c2ccc(C(C)(C)O)cc2OC)c2cc[nH]c2c1=O | 4.70
C/C=C/Cn1cc(-c2ccc(C(=O)N3CCOCC3)cc2)c2cc[nH]c2c1=O | 4.70

---

system: CaR-1; experiment: Cytotoxicity against human CaR-1 cells measured after 8 days; assay type: functional, cell-based; conditions: CaR-1, 192 h
pIC50: −log10 of the molar value.
measure: pIC50

smiles-repr | val
C/C=C/Cn1cc(-c2ccc(C(=O)N3CCOCC3)cc2)c2cc[nH]c2c1=O | 4.70
C/C=C/Cn1cc(-c2ccc(C(C)(C)O)cc2OC)c2cc[nH]c2c1=O | 4.70

---

test: Cytotoxicity against human NCI-H2110 cells measured after 8 days; format: functional, cell-based; settings: NCI-H2110, 192 h
pIC50: −log10 of the molar value.
Each entry below lists one item and its recorded pIC50 value.

smiles-repr | pIC50
C/C=C/Cn1cc(-c2cc(OC)c(C(=O)N3CCOCC3)cc2OC)c2cc(C)[nH]c2c1=O | 5.70
C/C=C/Cn1cc(-c2ccc(C(=O)N3CCOCC3)cc2)c2cc[nH]c2c1=O | 4.70
C/C=C/Cn1cc(-c2ccc(C(C)(C)O)cc2OC)c2cc[nH]c2c1=O | 4.70

---

system: SU-DHL-5; assay: Cytotoxicity against human SU-DHL-5 cells measured after 3 days; format: functional, cell-based; details: SU-DHL-5, 72 h

smiles-repr | IC50 (µM)
C/C=C/Cn1cc(-c2cc(OC)c(C(=O)N3CCOCC3)cc2OC)c2cc(C)[nH]c2c1=O | 5

---

system: ES-2; test: Cytotoxicity against human ES2 cells measured after 3 days; type: functional, cell-based; conditions: ES-2, 72 h
pIC50: −log10 of the molar value.
measure: pIC50

smiles-repr | system-under-test | val
C/C=C/Cn1cc(-c2cc(OC)c(C(=O)N3CCOCC3)cc2OC)c2cc(C)[nH]c2c1=O | ES-2 | 5.30

---

system: SK-HEP1; experiment: Cytotoxicity against human SK-HEP1 cells measured after 8 days; type: functional, cell-based; conditions: SK-HEP1, 192 h
pIC50: −log10 of the molar value.
Each entry below lists one item and its recorded pIC50 value.

smiles-repr | pIC50
C/C=C/Cn1cc(-c2ccc(C(C)(C)O)cc2OC)c2cc[nH]c2c1=O | 4.70
C/C=C/Cn1cc(-c2ccc(C(=O)N3CCOCC3)cc2)c2cc[nH]c2c1=O | 4.70

---

system: SU-DHL-16; assay: Cytotoxicity against human SU-DHL-16 cells measured after 3 days; assay type: functional, cell-based; conditions: SU-DHL-16, 72 h
pIC50: −log10 of the molar value.

smiles-repr | system-under-test | pIC50
C/C=C/Cn1cc(-c2cc(OC)c(C(=O)N3CCOCC3)cc2OC)c2cc(C)[nH]c2c1=O | SU-DHL-16 | 5.30

---

test system: NCI-H187; assay: Cytotoxicity against human NCI-H187 cells measured after 8 days; type: functional, cell-based; details: NCI-H187, 192 h
Each entry below lists one item and its recorded IC50 value.

smiles-repr | IC50
C/C=C/Cn1cc(-c2ccc(C(C)(C)O)cc2OC)c2cc[nH]c2c1=O | 20 µM
C/C=C/Cn1cc(-c2ccc(C(=O)N3CCOCC3)cc2)c2cc[nH]c2c1=O | 20 µM

---

test: Cytotoxicity against human CL-34 cells measured after 8 days; type: functional, cell-based; settings: CL-34, 192 h
measure: IC50 (µM)

smiles-repr | val
C/C=C/Cn1cc(-c2ccc(C(=O)N3CCOCC3)cc2)c2cc[nH]c2c1=O | 20
C/C=C/Cn1cc(-c2ccc(C(C)(C)O)cc2OC)c2cc[nH]c2c1=O | 20

---

test system: COLO-829; experiment: Cytotoxicity against human COLO-829 cells measured after 8 days; format: functional, cell-based; settings: COLO-829, 192 h
pIC50: −log10 of the molar value.
Each entry below lists one item and its recorded pIC50 value.
measure: pIC50

smiles-repr | measure | val
C/C=C/Cn1cc(-c2ccc(C(=O)N3CCOCC3)cc2)c2cc[nH]c2c1=O | pIC50 | 4.70
C/C=C/Cn1cc(-c2ccc(C(C)(C)O)cc2OC)c2cc[nH]c2c1=O | pIC50 | 4.70
